Documented AUC across a set of compounds
- EXPERIMENT: AUC in C57BL/6J mouse liver at 1 mg/kg, po after 0.5 to 6 hrs by LC-MS/MS method
- Format: ADME, organism-based
- Set-up: time lower 0.5 hr, dose 1 mg/kg, time upper 6 hr, route oral
- CONDITIONS: in vivo
Please respond with the number in nmol·h/kg and leave the unit unwritten.

| MOLECULE | AUC, nmol·h/kg |
| --- | --- |
| O=C(O)C[C@H](NC(=O)C1CCN(C(=O)C2CCCC2)CC1)C(=O)COc1c(F)c(F)cc(F)c1F | 2219 |

# compound O=C(O)C[C@H](NC(=O)C1CCN(C(=O)c2cccs2)CC1)C(=O)COc1c(F)c(F)cc(F)c1F ; its AUC = 804

# compound O=C(O)C[C@H](NC(=O)C1CCN(C(=O)C2CC(F)(F)C2)CC1)C(=O)COc1c(F)c(F)cc(F)c1F ; its AUC = 334

# compound C[C@H](NC(=O)C(=O)Nc1ccccc1C(C)(C)C)C(=O)N[C@@H](CC(=O)O)C(=O)COc1c(F)c(F)cc(F)c1F ; its AUC = 2350
